assay: Oral bioavailability in C57 BL/6 or CD-1 mouse at 1 mg/kg measured upto 24 hrs by LC-MS/MS analysis; type: ADME, organism-based; details: in vivo
property-name: bioavailability (%)
Give your result in % as a bare value.

Record request: bioavailability value, item O=C1CC[C@H](N2Cc3cc(N4CCN(CC5CCN(c6ccc([C@@H]7c8ccc(O)cc8CC[C@@H]7c7ccccc7)cc6)CC5)CC4)ccc3C2=O)C(=O)N1 [VEPDEGESTRANT]
58.5

Ok, now `Cc1ncsc1-c1ccc(CNC(=O)[C@@H]2C[C@@H](O)CN2C(=O)[C@@H](NC(=O)COCCOCCOCCNC(=O)C[C@@H]2N=C(c3ccc(Cl)cc3)c3c(sc(C)c3C)-n3c(C)nnc32)C(C)(C)C)cc1`
0.16

Then `Cc1nc(CCC(=O)NCCCCC(=O)N[C@H](C(=O)N2C[C@H](O)C[C@H]2C(=O)NCc2ccc(-c3scnc3C)cc2)C(C)(C)C)ccc1-c1cnc(NCc2c(Cl)ccc3c2CCO3)n2cnnc12` ?
0

Same read-out for Cc1ncsc1-c1ccc([C@H](C)NC(=O)[C@@H]2C[C@@H](O)CN2C(=O)[C@@H](NC(=O)CCCCCC(=O)N2CCN(CC[C@H](CSc3ccccc3)Nc3ccc(S(=O)(=O)NC(=O)c4ccc(N5CCN(CC6=C(c7ccc(Cl)cc7)CCC(C)(C)C6)CC5)cc4)cc3S(=O)(=O)C(F)(F)F)CC2)C(C)(C)C)cc1 [DT-2216] ?
0.07

----------
assay: Lipophilicity, logD of compound in octanol-water at pH 7.4 by reverse phase HPLC analysis; format: physicochemical
property-name: logD
Number only, please.

Requested read-out: logD. Entry: CCOC(=O)C1=C(C)NC(C)=C(C(=O)OC)C1c1cccc(Cl)c1Cl (centres undefined) [FELODIPINE]
5.2

Next molecule up: O=C1CC[C@H](N2Cc3cc(N4CCN(CC5CCN(c6ccc([C@@H]7c8ccc(O)cc8CC[C@@H]7c7ccccc7)cc6)CC5)CC4)ccc3C2=O)C(=O)N1 [VEPDEGESTRANT]
5.7

Next record, please: COC(=O)N[C@H](C(=O)N[C@@H](Cc1ccccc1)[C@@H](O)CN(Cc1ccc(-c2ccccn2)cc1)NC(=O)[C@@H](NC(=O)OC)C(C)(C)C)C(C)(C)C [ATAZANAVIR]
4.2

Another: Cn1c(=O)n(C2CCC(=O)NC2=O)c2cccc(C#CCOC3CCN(C[C@H]4CC[C@H](n5cc(NC(=O)c6cnn7ccc(N8C[C@H]9C[C@@H]8CO9)nc67)c(C(F)F)n5)CC4)CC3)c21 (some centres undefined) [KT-474]
2.4

----------
assay: Lipophilicity, logD of compound in octanol-water at pH 7.4 by reverse phase HPLC analysis; type: physicochemical; conditions: read-out: logD
Hi there, I'd appreciate the recorded logD for every entry that follows.
Please give only the number in your answer, with no unit.

For the compound CC1(C)CCC(CN2CCN(c3ccc(C(=O)NS(=O)(=O)c4ccc(NCC5CCOCC5)c([N+](=O)[O-])c4)c(Oc4cnc5[nH]ccc5c4)c3)CC2)=C(c2ccc(Cl)cc2)C1 [VENETOCLAX] , what logD is on record?
7.9

Same question, CN(C)CCC=C1c2ccccc2C=Cc2ccccc21 [CYCLOBENZAPRINE] this time
3.1

Same question, COC(=O)C1=C(C)NC(C)=C(C(=O)OCCN(C)Cc2ccccc2)C1c1cccc([N+](=O)[O-])c1 (configuration not stated) [NICARDIPINE] this time
5

Moving on to the next compound: Cc1ncsc1-c1ccc([C@H](C)NC(=O)[C@@H]2C[C@@H](O)CN2C(=O)[C@@H](NC(=O)CCCCCC(=O)N2CCN(CC[C@H](CSc3ccccc3)Nc3ccc(S(=O)(=O)NC(=O)c4ccc(N5CCN(CC6=C(c7ccc(Cl)cc7)CCC(C)(C)C6)CC5)cc4)cc3S(=O)(=O)C(F)(F)F)CC2)C(C)(C)C)cc1 [DT-2216]
7.3

Next entry: COc1cc(O[C@H]2C(C)(C)[C@H](NC(=O)c3ccc(N4CCC(CN5CCN(c6ccc(C(=O)N[C@H]7CCC(=O)NC7=O)c(F)c6)CC5)CC4)cc3)C2(C)C)ccc1C#N [LUXDEGALUTAMIDE]
5

Can you handle `Cc1nc(CCC(=O)NCCCCC(=O)N[C@H](C(=O)N2C[C@H](O)C[C@H]2C(=O)NCc2ccc(-c3scnc3C)cc2)C(C)(C)C)ccc1-c1cnc(NCc2c(Cl)ccc3c2CCO3)n2cnnc12` next?
2.5

Please do the same for CC(=O)CC(c1ccccc1)c1c(O)c2ccccc2oc1=O (configuration not stated) [WARFARIN] as well.
0.78
